assay-remarks: Cytotoxicity by alamarBlue assay in HCT116 cells
settings: human, GI50, HCT116 cells
Items are presented alongside their recorded GI50.

NCCCCC(NC(=O)C1CCCN1C(=O)Cc1cccc2ccccc12)C(=O)NCCc1cccc(-c2ccccc2)c1 (centres unmarked); < 70 µM

In: Any idea what its GI50 is? The compound is NCCCC[C@H](NC(=O)[C@@H]1CCCN1C(=O)Cc1cccc2ccccc12)C(=O)NCc1cccc(Br)c1
Out: ~130 µM

In: Returns the measured GI50 for the input compound. Input: NCCCC[C@H](NC(=O)[C@@H]1CCCN1C(=O)Cc1cccc2ccccc12)C(=O)NCc1ccc(Br)cc1
Out: ~130 µM

In: # input compound: NCCCCC(NC(=O)C1CCCN1C(=O)Cc1cccc2ccccc12)C(=O)Nc1ccc(Br)cc1 (centres unmarked) ; wanted: its GI50
Out: < 70 µM

In: I have this compound here, NCCCCC(NC(=O)C1CCCN1C(=O)Cc1cccc2ccccc12)C(=O)NCC1CCCCC1 (centres unmarked) , and I need its recorded GI50.
Out: > 300 µM

In: Dear colleague, I am looking for the recorded GI50 of the following compound: NCCCCC(NC(=O)C1CCCN1C(=O)Cc1cccc2ccccc12)C(=O)Nc1cccc(Br)c1 (centres unmarked)
Out: < 70 µM

In: Given the compound NCCCCC(NC(=O)C1CCCN1C(=O)Cc1cccc2ccccc12)C(=O)NCCc1ccccc1 (centres unmarked) , what is its reported GI50?
Out: > 300 µM

In: Dear colleague, I am looking for the recorded GI50 of the following compound: NCCCCC(NC(=O)C1CCCN1C(=O)Cc1cccc2ccccc12)C(=O)NCc1ccccc1 (centres unmarked)
Out: > 300 µM

* * *

target-desc: NTMT1 (Homo sapiens, UniProt Q9BV86)
Construct: made in house
Sequence (Q9BV86 whole entry): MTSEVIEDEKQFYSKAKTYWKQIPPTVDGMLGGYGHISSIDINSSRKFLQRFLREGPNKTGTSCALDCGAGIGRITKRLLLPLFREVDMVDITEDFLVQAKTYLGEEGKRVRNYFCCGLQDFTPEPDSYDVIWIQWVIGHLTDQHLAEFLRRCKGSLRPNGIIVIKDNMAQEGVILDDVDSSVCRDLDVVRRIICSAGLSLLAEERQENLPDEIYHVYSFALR
assay-remarks: SAHH-coupled fluorescence assay of NTMT1 inhibition
Type: biochemical
quantity-name: pIC50
Hey, just a heads up that pIC50 is the negative log base 10 of the concentration in molar.

In: Need pIC50 of NCCCCC(NC(=O)C1CCCN1C(=O)Cc1cccc2ccccc12)C(=O)NCCCc1ccccc1 (stereo not shown) [Compound 1e] , thanks.
Out: 6.19

* * *

The entries below are paired with their reported Papp.
assay-remarks: in vitro
settings: PAMPA
Give the value in ×10⁻⁶ cm/s but do not write ×10⁻⁶ cm/s after it.

Sample records with Papp:
NCCCCC(NC(=O)C1CCCN1C(=O)Cc1cccc2ccccc12)C(=O)NCCc1ccc(-c2ccccc2)cc1 (stereo not drawn) [Compound 1j]; 0.9
NCCCC[C@H](NC(=O)[C@@H]1CCCN1C(=O)Cc1cccc2ccccc12)C(=O)NCc1cccc(Br)c1 [Compound 1g]; 0.6

In: Find the recorded Papp belonging to NCCCC[C@H](NC(=O)[C@@H]1CCCN1C(=O)Cc1cccc2ccccc12)C(=O)NCc1ccc(Br)cc1 [Compound 1h] and report it.
Out: 0.9

* * *

assay-remarks: Parallel Artificial Membrane Permeability Assay (PAMPA)
quantity-name: Papp (×10⁻⁶ cm/s)
Give the number; ×10⁻⁶ cm/s is assumed, so skip it.

In: Consider the compound shown here: NCCCCC(NC(=O)C1CCCN1C(=O)Cc1cccc2ccccc12)C(=O)NCCCc1ccccc1 (stereo not shown) What is its recorded Papp?
Out: 0.17

* * *

target-desc: NTMT1 (Homo sapiens, UniProt Q9BV86)
Construct: made in house
assay-remarks: SAHH-coupled fluorescence assay of NTMT1 inhibition
Type: biochemical
settings: ratio of NTMT1 IC50 to that of DC541
quantity-name: IC50/IC50 (DC541)
Please give the numeric answer without any surrounding text.

Reference set (6 entries):
NCCCCC(NC(=O)C1CCCN1C(=O)Cc1cccc2ccccc12)C(=O)NCCc1ccc(-c2ccccc2)cc1 (stereo not shown); 7.4
NCCCC[C@H](NC(=O)[C@@H]1CCCN1C(=O)Cc1cccc2ccccc12)C(=O)NCc1ccc(Br)cc1; 2.4
NCCCCC(NC(=O)C1CCCN1C(=O)Cc1cccc2ccccc12)C(=O)NCC1CCCCC1 (stereo not shown); 2.8
NCCCCC(NC(=O)C1CCCN1C(=O)Cc1cccc2ccccc12)C(=O)NCCc1cccc(-c2ccccc2)c1 (stereo not shown); 2.0
NCCCC[C@H](NC(=O)[C@@H]1CCCN1C(=O)Cc1cccc2ccccc12)C(=O)NCc1cccc(Br)c1; 1.7
NCCCCC(NC(=O)C1CCCN1C(=O)Cc1cccc2ccccc12)C(=O)Nc1ccc(Br)cc1 (stereo not shown); 0.53

Next compound, IC50/IC50 (DC541) to be filled in.
In: Need IC50/IC50 (DC541) of NCCCCC(NC(=O)C1CCCN1C(=O)Cc1cccc2ccccc12)C(=O)Nc1ccccc1C(N)=O (stereo not shown) [DC541, reference compound] , thanks.
Out: 1.0

* * *

target-desc: NTMT1 (Homo sapiens, UniProt Q9BV86)
Construct: made in house
assay-remarks: SAHH-coupled fluorescence assay of NTMT1 inhibition
Assay type: biochemical
settings: estimated from the IC50 values in Table 1
quantity-name: Expt. ΔGbind ± σ (kcal/mol)
Give the number; kcal/mol is assumed, so skip it.

// known answers, use as guide
NCCCCC(NC(=O)C1CCCN1C(=O)Cc1cccc2ccccc12)C(=O)NCc1ccccc1 (stereo not shown); -8.24
NCCCCC(NC(=O)C1CCCN1C(=O)Cc1cccc2ccccc12)C(=O)Nc1ccc(Br)cc1 (stereo not shown); -9.20
NCCCCC(NC(=O)C1CCCN1C(=O)Cc1cccc2ccccc12)C(=O)Nc1cccc(Br)c1 (stereo not shown); -9.24

Next molecule, Expt. ΔGbind ± σ to be filled in.
In: Lab request: please report Expt. ΔGbind ± σ under test system NTMT1 (Homo sapiens, UniProt Q9BV86) for NCCCCC(NC(=O)C1CCCN1C(=O)Cc1cccc2ccccc12)C(=O)NCC1CCCCC1 (stereo not shown)
Out: -8.22

* * *

target-desc: NTMT1 (Homo sapiens, UniProt Q9BV86)
Construct: made in house
assay-remarks: SAHH-coupled fluorescence assay of NTMT1 inhibition
Type: biochemical
settings: ratio of NTMT1 IC50 to that of DC541
quantity-name: IC50/IC50 (DC541)

In: Give its IC50/IC50 (DC541) value. Item: NCCCCC(NC(=O)C1CCCN1C(=O)Cc1cccc2ccccc12)C(=O)Nc1cccc(Br)c1 (stereo not shown)
Out: 0.50

In: // returns reported IC50/IC50 (DC541) for input NCCCCC(NC(=O)C1CCCN1C(=O)Cc1cccc2ccccc12)C(=O)NCc1ccccc1 (stereo not shown)
Out: 2.7

In: What IC50/IC50 (DC541) value was documented for this molecule, NCCCCC(NC(=O)C1CCCN1C(=O)Cc1cccc2ccccc12)C(=O)NCCCc1ccccc1 (stereo not shown) ?
Out: 1.9

In: Looking for the measured IC50/IC50 (DC541) of CN(CCc1ccccc1)C(=O)C(CCCCN)NC(=O)C1CCCN1C(=O)Cc1cccc2ccccc12 (stereo not shown) , can you help?
Out: 5.0

* * *

assay-remarks: in vitro
settings: human
quantity-name: GI50

In: Would you mind telling me what GI50 value was observed for NCCCCC(NC(=O)C1CCCN1C(=O)Cc1cccc2ccccc12)C(=O)NCCCc1ccccc1 (stereo not shown) ?
Out: > 300 µM

* * *

Test system: HCT116 cells
assay-remarks: Cytotoxicity by alamarBlue assay in HCT116 cells
Listing of entries alongside the reported GI50.

Example molecules with recorded GI50:
NCCCC[C@H](NC(=O)[C@@H]1CCCN1C(=O)Cc1cccc2ccccc12)C(=O)NCc1cccc(Br)c1 [Compound 1g]; 128 µM
NCCCC[C@H](NC(=O)[C@@H]1CCCN1C(=O)Cc1cccc2ccccc12)C(=O)NCc1ccc(Br)cc1 [Compound 1h]; 135 µM

Here is another molecule to look at.
In: Need GI50, item NCCCCC(NC(=O)C1CCCN1C(=O)Cc1cccc2ccccc12)C(=O)NCCc1cccc(-c2ccccc2)c1 (stereo not drawn) [Compound 1k]
Out: 65 µM
